// provenance: the supplement of paper PMC5908809

Field: percent inhibition of viability. Provide a value for each of the compounds that follow.
# Test system: normal NK cells expanded with K562-aAPC
# procedure.text: percent inhibition of viability; higher = more inhibition
# run.conditions: 72 h; IL-2 2.5 ng/mL; 2.5 nM
Record the value in %, omitting the unit from your answer.

Please indicate percent inhibition of viability recorded for COc1cc(Nc2ncc(F)c(Nc3ccc4c(n3)N(COP(=O)(O)O)C(=O)C(C)(C)O4)n2)cc(OC)c1OC [Fostamatinib] (max concentration tested 2500 nM)
-6.48

Please indicate percent inhibition of viability recorded for CC(=O)OC[C@H]1O[C@@H]([S-])[C@H](OC(C)=O)[C@@H](OC(C)=O)[C@@H]1OC(C)=O.CCP(CC)CC.[Au+] [Auranofin] (max concentration tested 2500 nM)
-1.41

Please indicate percent inhibition of viability recorded for CC(C)Cn1cnc2c(N)nc3ccccc3c21 [Imiquimod] (max concentration tested 2500 nM)
-4.12

Please indicate percent inhibition of viability recorded for COc1ccc(Cl)c(Nc2nc3ccccc3nc2NS(=O)(=O)c2cccc(NC(=O)C(C)(C)N)c2)c1 [Pilaralisib] (max concentration tested 2500 nM)
-9.89

====

# Test system: normal primary NK cells, pool 1 (3 donors), resting (IL-2 0 ng/mL)
# procedure.text: percent inhibition of viability; higher = more inhibition
# run.conditions: 72 h; 1000 nM
Field: percent inhibition of viability. Provide a value for each of the compounds that follow.
Record the value in %, omitting the unit from your answer.

Please indicate percent inhibition of viability recorded for O=C(O)CC[C@H]1CC[C@@](c2cc(F)ccc2F)(S(=O)(=O)c2ccc(Cl)cc2)CC1 [MK-0752] (max concentration tested 1000 nM)
-7.22

Please indicate percent inhibition of viability recorded for CC(C)n1cnc2c(NCCc3ccc(O)cc3)nc(-c3csc4ccccc34)nc21 [StemRegenin 1] (max concentration tested 10000 nM)
12.3

Please indicate percent inhibition of viability recorded for CC(C)[C@H](C(=O)Nc1ccc(C(=O)NO)cc1)c1ccccc1 [AR-42] (max concentration tested 10000 nM)
77.4

Please indicate percent inhibition of viability recorded for Cc1cc2c(F)c(Oc3ncnn4cc(OC[C@@H](C)O)c(C)c34)ccc2[nH]1 [Brivanib] (max concentration tested 1000 nM)
-5.72

Please indicate percent inhibition of viability recorded for CCN(CC)CCNC(=O)c1c(C)[nH]c(/C=C2\C(=O)Nc3ccc(F)cc32)c1C [Sunitinib] (max concentration tested 1000 nM)
8.42

Please indicate percent inhibition of viability recorded for C[C@]12CC[C@@H]3c4ccc(O)cc4C[C@@H](CCCCCCCCC[S+]([O-])CCCC(F)(F)C(F)(F)F)[C@H]3[C@@H]1CC[C@@H]2O (some centres not stated) [Fulvestrant] (max concentration tested 1000 nM)
31.3

Please indicate percent inhibition of viability recorded for CCC1(c2ccc(N)cc2)CCC(=O)NC1=O (configuration not stated) [Aminoglutethimide] (max concentration tested 10000 nM)
-7.06

Please indicate percent inhibition of viability recorded for C[C@@H]1C[C@H]2[C@@H]3CCC4=CC(=O)C=C[C@]4(C)[C@@]3(F)[C@@H](O)C[C@]2(C)[C@@]1(O)C(=O)CO [Dexamethasone] (max concentration tested 10000 nM)
84.5

Please indicate percent inhibition of viability recorded for NC(=O)Nc1cc(-c2cccc(F)c2)sc1C(=O)N[C@H]1CCCNC1 [AZD7762] (max concentration tested 1000 nM)
15

Please indicate percent inhibition of viability recorded for C=CCN(/C=C1/C(=O)O[C@H](COC)[C@@]2(C)C1=C(O)C(=O)C1=C2[C@H](OC(C)=O)C[C@]2(C)C(=O)CC[C@@H]12)CC=C [Sonolisib] (max concentration tested 10000 nM)
16.4

Please indicate percent inhibition of viability recorded for Cc1ccc(-n2nc(C(C)(C)C)cc2NC(=O)Nc2ccc(OCCN3CCOCC3)c3ccccc23)cc1 [Doramapimod] (max concentration tested 10000 nM)
3.17

Please indicate percent inhibition of viability recorded for O=C(CCCCCCC(=O)Nc1ccccc1)NO [Vorinostat] (max concentration tested 10000 nM)
71.9

====

# Tested on: normal primary NK cells, pool 2 (3 donors) (IL-2 2.5 ng/mL)
# procedure.text: percent inhibition of viability; higher = more inhibition
# run.conditions: 72 h; 2.5 nM
Field: percent inhibition of viability. Provide a value for each of the compounds that follow.
A bare number is not enough; add the unit after it.

State the measured percent inhibition of viability (normal primary NK cells, pool 2 (3 donors) (IL-2 2.5 ng/mL)) of CN[C@@H](C)C(=O)N[C@H](C(=O)N1CCC[C@H]1c1nc(C(=O)c2ccc(F)cc2)cs1)C1CCCCC1 [LCL161] (max concentration tested 25000 nM)
-10.3%

State the measured percent inhibition of viability (normal primary NK cells, pool 2 (3 donors) (IL-2 2.5 ng/mL)) of COC[C@H](NC(=O)c1cnc(C)s1)C(=O)N[C@@H](COC)C(=O)N[C@@H](Cc1ccccc1)C(=O)[C@@]1(C)CO1 [Oprozomib] (max concentration tested 2500 nM)
3.49%

State the measured percent inhibition of viability (normal primary NK cells, pool 2 (3 donors) (IL-2 2.5 ng/mL)) of O=C(NOCCO)c1ccc2cncn2c1Nc1ccc(I)cc1F [GDC-0623] (max concentration tested 2500 nM)
-3.52%

State the measured percent inhibition of viability (normal primary NK cells, pool 2 (3 donors) (IL-2 2.5 ng/mL)) of COc1ccc2c(OCc3nnc4ccc(-c5ccccc5)nn34)ccnc2c1 [AMG-208] (max concentration tested 2500 nM)
-5.68%

State the measured percent inhibition of viability (normal primary NK cells, pool 2 (3 donors) (IL-2 2.5 ng/mL)) of CC(=O)OC[C@H]1O[C@@H]([S-])[C@H](OC(C)=O)[C@@H](OC(C)=O)[C@@H]1OC(C)=O.CCP(CC)CC.[Au+] [Auranofin] (max concentration tested 2500 nM)
-6.97%

State the measured percent inhibition of viability (normal primary NK cells, pool 2 (3 donors) (IL-2 2.5 ng/mL)) of CC(C)(C)c1nc(-c2cccc(NS(=O)(=O)c3c(F)cccc3F)c2F)c(-c2ccnc(N)n2)s1 [Dabrafenib] (max concentration tested 2500 nM)
-5.28%

====

Field: relative IC50. Provide a value for each of the molecules that follow.
# Test system: KHYG-1 (IL-2 2.5 ng/mL)
# procedure.text: relative IC50 (inflection point of fitted viability curve, relative to fitted max inhibition); higher = less sensitive
# run.conditions: 72 h
Record the value in µM, omitting the unit from your answer.

Please indicate relative IC50 recorded for Cc1csc(-c2nnc(Nc3ccc(Oc4ncccc4-c4ccnc(N)n4)cc3)c3ccccc23)c1 [AMG-900]
0.0113

Please indicate relative IC50 recorded for CC[C@H](CC#N)OC(=O)N[C@@H](C)c1cccc(NC(=O)Nc2ccc(-c3cnco3)c(OC)c2)c1 [AVN944]
0.103

Please indicate relative IC50 recorded for Cc1ccc(C(=O)Nc2ccc(CN3CCN(C)CC3)c(C(F)(F)F)c2)cc1C#Cc1cnc2cccnn12 [Ponatinib]
0.27

Please indicate relative IC50 recorded for COc1cc([C@@H]2c3cc4c(cc3[C@@H](O[C@@H]3O[C@@H]5CO[C@@H](C)O[C@H]5[C@H](O)[C@H]3O)[C@H]3COC(=O)[C@H]23)OCO4)cc(OC)c1O [Etoposide]
0.435

Please indicate relative IC50 recorded for CC(C)n1cnc2c(NCCc3ccc(O)cc3)nc(-c3csc4ccccc34)nc21 [StemRegenin 1]
2.45

Please indicate relative IC50 recorded for O=C(NC[C@H](O)CO)c1ccncc1Nc1ccc(I)cc1F [Pimasertib]
0.083

Please indicate relative IC50 recorded for CCc1cnn2c(NCc3ccc[n+]([O-])c3)cc(N3CCCC[C@H]3CCO)nc12 [Dinaciclib]
0.0113

====

Field: percent inhibition of viability. Provide a value for each of the compounds that follow.
# Test system: DERL-7 (IL-2 2.5 ng/mL)
# procedure.text: percent inhibition of viability; higher = more inhibition
# run.conditions: 72 h; 100 nM
A bare number is not enough; add the unit after it.

Please indicate percent inhibition of viability recorded for NC1(c2ccc(-c3nc4ccn5c(=O)[nH]nc5c4cc3-c3ccccc3)cc2)CCC1 [MK-2206] (max concentration tested 1000 nM)
34.8%

Please indicate percent inhibition of viability recorded for CC(C)Oc1cc(Nc2nc(N[C@@H](C)c3ccc(F)cn3)ncc2Cl)n[nH]1 [AZ-23] (max concentration tested 1000 nM)
0.42%

Please indicate percent inhibition of viability recorded for Cn1ncnc1[C@H]1c2n[nH]c(=O)c3cc(F)cc(c23)N[C@@H]1c1ccc(F)cc1 [Talazoparib] (max concentration tested 1000 nM)
21.3%

====

# System: IMC-1 (IL-2 20 ng/mL)
# procedure.text: percent inhibition of viability; higher = more inhibition
# run.conditions: 72 h; 10000 nM
One threshold, 70%, splits the recorded percent inhibition of viability values: lower ones are t, equal or higher ones are f.

Dear reviewer, please state whether N#CCNC(=O)c1ccc(-c2ccnc(Nc3ccc(N4CCOCC4)cc3)n2)cc1 [Momelotinib] (max concentration tested 10000 nM) has percent inhibition of viability strictly beneath 70%.
f

Dear reviewer, please state whether C[C@]12C=CC(=O)C=C1CC[C@@H]1[C@@H]2[C@@H](O)C[C@@]2(C)[C@H]1CC[C@]2(O)C(=O)CO [Prednisolone] (max concentration tested 10000 nM) has percent inhibition of viability strictly beneath 70%.
t

Dear reviewer, please state whether Cn1cc(C2=C(c3cn(C4CCN(Cc5ccccn5)CC4)c4ccccc34)C(=O)NC2=O)c2ccccc21 [Enzastaurin] (max concentration tested 10000 nM) has percent inhibition of viability strictly beneath 70%.
t

Dear reviewer, please state whether O=C(O)c1ccc(-c2c[nH]c3ncc(-c4ccccc4)cc23)cc1C1CCCC1 (max concentration tested 10000 nM) has percent inhibition of viability strictly beneath 70%.
f

Dear reviewer, please state whether CCCc1cc(C)[nH]c(=O)c1CNC(=O)c1cc(-c2ccnc(N3CCN(C)CC3)c2)cc2c1cnn2C(C)C [GSK343] (max concentration tested 10000 nM) has percent inhibition of viability strictly beneath 70%.
f

Dear reviewer, please state whether CCN(CC)CCOc1ccc(C(=C(Cl)c2ccccc2)c2ccccc2)cc1 [Clomifene] (max concentration tested 10000 nM) has percent inhibition of viability strictly beneath 70%.
f
